Parameter: IC50. Scope: all listed entries.
Tested on: SMN2 mRNA
Assay: RT-qPCR splicing assay, SMN2 canonical junction (CJ) mRNA
Assay type: cell-based, human
Details: Homo sapiens; canonical junction qPCR panel, Table 5; read-out: SMN2 (decrease in CJ mRNA levels, IC50)

[
  {
    "compound": "Cc1cn2nc(-c3ccc4c(=O)n(C56CCC(N)(CC5)C6)ccc4n3)cc(C)c2n1",
    "result": "< 0.1 µM"
  },
  {
    "compound": "Cc1c(O)c(-c2ncc3c(=O)n(C4C[C@@H](C)N[C@H](C)C4)ccc3n2)cc2cn(C)nc12 (stereo partly drawn)",
    "result": "< 0.1 µM"
  },
  {
    "compound": "Cc1cn2cc(-c3ncc4c(=O)n(C5CCNCC5)ccc4n3)cc(C#N)c2n1",
    "result": "< 0.1 µM"
  }
]

Summary for this compound, Cc1cn2cc(-c3cc(F)c4c(=O)n([C@@H]5CNC[C@H]5F)ccc4c3)cc(F)c2n1 : IC50 is 0.1 to 1 µM

Summary for this compound, Cc1c(O)c(-c2ncc3c(=O)n([C@@H]4C[C@H]5C[C@@H]4CN5)ccc3n2)cc2cn(C)nc12 : IC50 is 0.1 to 1 µM

Summary for this compound, Cc1cn2cc(-c3ncc4c(=O)n([C@H]5CCN[C@H](C)C5)ccc4n3)cc(F)c2n1 : IC50 is < 0.1 µM
